assayExplanation: Plasma valemetostat pharmacokinetics, noncompartmental analysis
Assay type: in vivo, human
measurementContext: human, plasma, oral, 200 mg, AUCtau, Total; Cycle 1 day 15 (steady state); Mean (SD)
Counter-ions that a name gives are not always drawn.
propertyName: AUC (ng·h/mL)
Entry rule: numbers only, all in ng·h/mL.

Exercise: Look at this compound and give its reported AUC. Cc1cc(C)c(CNC(=O)c2cc(Cl)c3c(c2C)O[C@@](C)([C@H]2CC[C@H](N(C)C)CC2)O3)c(=O)[nH]1 [valemetostat, Valemetostat tosylate]
Key: 20800

---

assayExplanation: Plasma valemetostat pharmacokinetics, noncompartmental analysis
Type: in vivo, human
measurementContext: human, plasma, oral, 200 mg, Cmax, Total valemetostat; Cycle 1 day 15; Mean (SD)
Where a name gives a salt, the structure may show the parent alone.
propertyName: Cmax (ng/mL)
Expressed in ng/mL, but write only the number.

Exercise: Form field: reported Cmax of Cc1cc(C)c(CNC(=O)c2cc(Cl)c3c(c2C)O[C@@](C)([C@H]2CC[C@H](N(C)C)CC2)O3)c(=O)[nH]1 [valemetostat, Valemetostat tosylate]
Key: 2300

---

assayExplanation: Plasma valemetostat pharmacokinetics, noncompartmental analysis
Assay type: in vivo, human
measurementContext: human, plasma, oral, 200 mg, Cmax, Total valemetostat; Cycle 1 day 1; 200 mg once daily; Mean (SD)
Where a name gives a salt, the structure may show the parent alone.
propertyName: Cmax (ng/mL)
Number in ng/mL, nothing else.

Exercise: Could you share which Cmax value was measured for Cc1cc(C)c(CNC(=O)c2cc(Cl)c3c(c2C)O[C@@](C)([C@H]2CC[C@H](N(C)C)CC2)O3)c(=O)[nH]1 [valemetostat, Valemetostat tosylate] ?
Key: 2230
